Source of measurements: patent US20260234165A1

- System: p-ERK in AsPC-1 cells (KRAS G12D mutation)
- MEASUREMENT PROTOCOL: Cell p-ERK assay (HTRF) in AsPC-1 cells
- Assay type: cell-based, human
- STUDY CONDITIONS: Homo sapiens, ASPC1, 3 h, AsPC-1 cells, 3 h compound incubation, HTRF p-ERK T202/Y204; read-out: AsPC-1 p-ERK IC50
RECORDED METRIC: IC50 (nM)

Use these answered entries as a reference point.
{"COMPOUND": "CCn1c(-c2cc(C#CCN3CCCOCC3)cnc2[C@H](C)OC)c2c3cc(ccc31)-c1csc(n1)C[C@H](NC(=O)C1[C@H]3COC[C@@H]13)C(=O)N1CCC[C@H](N1)C(=O)OCC(C)(C)C2 (atropisomer, axis not shown; (Ra))", "VALUE UNITS": "nM", "IC50": 0.17}
{"COMPOUND": "CCn1c(-c2cc(C#C[C@H]3CCCN3C)cnc2[C@H](C)OC)c2c3cc(ccc31)-c1csc(n1)C[C@H](NC(=O)[C@H]1[C@H](C)[C@@H]1C)C(=O)N1CCC[C@H](N1)C(=O)OCC(C)(C)C2 (atropisomer, axis not shown; (Ra))", "VALUE UNITS": "nM", "IC50": 1.05}
{"COMPOUND": "CCn1c(-c2cc(C#CCN3CCS(=N)(=O)CC3)cnc2[C@H](C)OC)c2c3cc(ccc31)-c1csc(n1)C[C@H](NC(=O)[C@H]1[C@H](C)[C@@H]1C)C(=O)N1CCC[C@H](N1)C(=O)OCC(C)(C)C2 (atropisomer, axis not shown; (Ra))", "VALUE UNITS": "nM", "IC50": 0.18}
{"COMPOUND": "CO[C@@H](C)c1ncc(C#CCN2CCC2)cc1-c1c2c3cc(ccc3n1CC(F)(F)F)-c1csc(n1)C[C@H](NC(=O)[C@H]1[C@H](C)[C@@H]1C)C(=O)N1CCC[C@H](N1)C(=O)OCC(C)(C)C2 (atropisomer, axis not shown; (Ra))", "VALUE UNITS": "nM", "IC50": 0.48}
{"COMPOUND": "CCn1c(-c2cc(N(C)CC3COCCN3C)cnc2[C@H](C)OC)c2c3cc(ccc31)-c1csc(n1)C[C@H](NC(=O)[C@H]1[C@H](C)[C@@H]1C)C(=O)N1CCC[C@H](N1)C(=O)OCC(C)(C)C2 (some centres unmarked)", "VALUE UNITS": "nM", "IC50": 19.2}

[A] CCn1c(-c2cc(C#CCN3CCC(C#N)CC3)cnc2[C@H](C)OC)c2c3cc(ccc31)-c1csc(n1)C[C@H](Nc1nnc3cc(C)ccn13)C(=O)N1CCC[C@H](N1)C(=O)OCC(C)(C)C2 (atropisomer, axis not shown; (Ra))
[B] CCn1c(-c2cc(OCCN3CCC4(CC4)C3)cnc2[C@H](C)OC)c2c3cc(ccc31)-c1csc(n1)C[C@H](NC(=O)[C@H]1[C@H](C)[C@@H]1C)C(=O)N1CCC[C@H](N1)C(=O)OCC1(CC1)C2
[C] CCn1c(-c2cc(C#CC(=O)N3CCCOCC3)cnc2[C@H](C)OC)c2c3cc(ccc31)-c1csc(n1)C[C@H](NC(=O)[C@H]1[C@H](C)[C@@H]1C)C(=O)N1CCC[C@H](N1)C(=O)OCC(C)(C)C2 [Compound Z810A]
Prompt: Sort the compounds on IC50; start with the lowest figure. # output: labels, in the requested order
Completion: C, A, B
